- assay procedure: Volume of distribution at steady state in Sprague-Dawley rat at 10 mg/kg, iv measured for 24 hrs by LC-MS/MS analysis
- Type: ADME, organism-based
- measurement conditions: in vivo, read-out: Vdss
quantity: Vd

Q) Any idea what Vd was measured for "[2H]C([2H])([2H])n1cc(-c2ccnc(Nc3cc(NC(=O)C=C)c(N4CCC(C)(N)CC4)cc3OC)n2)c2ccccc21" ?
A) 32.3 L/kg

Shift focus to the following entry.
Q) Any idea what Vd was measured for "[2H]C([2H])([2H])n1cc(-c2ccnc(Nc3cc(NC(=O)C=C)c(N4CC[C@@H](N(C)C)C4)cc3OC)n2)c2ccccc21" ?
A) 15.5 L/kg
